Cited source for all entries: patent US9981986B2

Assay type: physicochemical
Details: pH 7.4
Parameter SOL: see the listing below.
experimentalEndpoint: SOL

1) CC(C)(C)C1OCC2(C)C(O)=C(C(=O)NCC3CCCCC3)C(=O)N12 (racemic) [(±)-2E] | >300 µM
2) CC(C)(C)C1OCC2(C)C(=O)C(C(=O)NC34CC5CC(CC(C5)C3)C4)C(=O)N12 (racemic) [(±)-2A] | 75 to 150 µM
3) CCOC(=O)C12C(=O)C(=C(O)CC34CC5CC(C)(CC(C)(C5)C3)C4)C(=O)N1C(C(C)(C)C)OC2C (racemic) | >300 µM
4) CCOC(=O)C12C(=O)C(=C(O)CC(C)(C)CC(=O)OCCC34CC5CC(CC(C5)C3)C4)C(=O)N1C(C(C)(C)C)OC2C (racemic) | >300 µM

====

Test system: E. faecium 1, VanA (vancomycin resistant)
Test: MIC determination (bacteria), E2
Assay type: cell-based
experimentalEndpoint: MIC E2 (µg/mL)

1. CCOC(=O)C12C(=O)C(=C(O)CC(C)(C)CC(=O)OCCC34CC5CC(CC(C5)C3)C4)C(=O)N1C(C(C)(C)C)OC2C (racemic) [Compound 6G] | 0.5
2. CC(C)(C)C1OCC2(C)C(=O)C(C(=O)NC34CC5CC(CC(C5)C3)C4)C(=O)N12 (racemic) [(±)-2A] | 1
3. CC(C)(C)C1OCC2(C)C(O)=C(C(=O)NCC3CCCCC3)C(=O)N12 (racemic) [(±)-2E] | 1
4. CCOC(=O)C12C(=O)C(=C(O)CC34CC5CC(C)(CC(C)(C5)C3)C4)C(=O)N1C(C(C)(C)C)OC2C (racemic) [Compound 6C] | 1

====

Biological target: S. pneumonia UPPS (Streptococcus pneumoniae serotype 4)
Sequence (Q97SR4 1-252): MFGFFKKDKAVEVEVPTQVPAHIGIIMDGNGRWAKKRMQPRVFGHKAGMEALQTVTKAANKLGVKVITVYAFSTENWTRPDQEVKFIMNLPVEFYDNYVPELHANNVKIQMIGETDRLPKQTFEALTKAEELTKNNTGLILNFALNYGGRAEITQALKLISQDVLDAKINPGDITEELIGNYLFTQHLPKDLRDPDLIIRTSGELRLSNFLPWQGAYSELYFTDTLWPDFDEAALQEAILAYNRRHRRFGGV
experimentalEndpoint: IC50

1. CCOC(=O)C12C(=O)C(=C(O)CC(C)(C)CC(=O)OCCC34CC5CC(CC(C5)C3)C4)C(=O)N1C(C(C)(C)C)OC2C (racemic) | 1900 nM
2. CC(C)(C)C1OCC2(C)C(=O)C(C(=O)NC34CC5CC(CC(C5)C3)C4)C(=O)N12 (racemic) [(±)-2A] | 380 nM
3. CCOC(=O)C12C(=O)C(=C(O)CC34CC5CC(C)(CC(C)(C5)C3)C4)C(=O)N1C(C(C)(C)C)OC2C (racemic) | 3200 nM
4. CC(C)(C)C1OCC2(C)C(O)=C(C(=O)NCC3CCCCC3)C(=O)N12 (racemic) [(±)-2E] | 680 nM

====

System: H. influenzae 3, ATCC31517 MMSA
Experiment: MIC determination (bacteria), H3
Type: cell-based
Description: MIC Determination (Bacteria); MICs were determined based on Clinical and Laboratory Standards Institute (CLSI) methodology (Methods for dilution antimicrobial susceptibility tests for bacteria that grow aerobically; Approved Standard—seventh edition. 2006, M7-A7, CLSI, Wayne Pa.) by a 2-fold broth dilution technique in Mueller Hinton (pH7.4 Biorad). For S. pneumoniae, the medium was supplemented with 2.5% laked horse blood. For H. influenzae, the medium was haemophilus test medium (H.T.M.). […]
Parameter MIC H3: see the listing below.
experimentalEndpoint: MIC H3

1. CC(C)(C)C1OCC2(C)C(O)=C(C(=O)NCC3CCCCC3)C(=O)N12 (racemic) [(±)-2E] | 4 mg/L
2. CCOC(=O)C12C(=O)C(=C(O)CC34CC5CC(C)(CC(C)(C5)C3)C4)C(=O)N1C(C(C)(C)C)OC2C (racemic) | 64 mg/L
3. CCOC(=O)C12C(=O)C(=C(O)CC(C)(C)CC(=O)OCCC34CC5CC(CC(C5)C3)C4)C(=O)N1C(C(C)(C)C)OC2C (racemic) | >64 mg/L
4. CC(C)(C)C1OCC2(C)C(=O)C(C(=O)NC34CC5CC(CC(C5)C3)C4)C(=O)N12 (racemic) [(±)-2A] | 2 mg/L
